Where do these numbers come from? They come from patent US9120749B2.

tested on: 22Rv1 cells; assay: Cell-based assay: anti-proliferative activity, Cell Counting Kit-8, 72 hours (22Rv1); details: Homo sapiens
Counter-ions that a name gives are not always drawn.
readout-type: IC50 (µM)
Just the number in µM, nothing appended.

Annotate the compound CN1CCC(n2cc(Nc3c(C(=O)C(C)(C)C)cnc4ccc(-c5cc(Cl)c(O)c(Cl)c5)cc34)cn2)CC1 [Example 931, hydrochloride] with its measured IC50.
2.1

Annotate the compound CN(C)CCOc1ccc(Nc2c(S(C)(=O)=O)cnc3ccc(-c4cc(Cl)c(O)c(Cl)c4)cc23)cn1 [Example 884, hydrochloride] with its measured IC50.
4.1

Annotate the compound CC(=O)c1cnc2ccc(-c3ccc4nc[nH]c4c3)cc2c1Nc1ccc(N2CCN(C)CC2)nc1 [Example 901, hydrochloride] with its measured IC50.
2.1

====

test system: T47D cells; assay: Cell-based assay: anti-proliferative activity, Cell Counting Kit-8, 72 hours (T47D); conditions: Homo sapiens, T47D, 72 h
Structures can show the parent of a compound that is named as a salt.
Bucketed by reported IC50, buckets being bin 0: < 0.1 µM; bin 1: ≥ 0.1 µM and < 0.5 µM; bin 2: ≥ 0.5 µM

Where would COc1cc(-c2ccc3ncc(C(=O)C4CC4)c(Nc4cnc(N5CCCC(N)C5)nc4)c3c2)cc(Cl)c1O (centres unmarked) [Example 644] land among the classes by reported IC50?
bin 0

Where would CC(=O)c1cnc2ccc(-c3cc(F)c(O)c(Cl)c3)cc2c1N[C@H]1CC[C@H](C(=O)NCCN(C)C)CC1 [Example 893, hydrochloride] land among the classes by reported IC50?
bin 2

Where would CCCC(=O)c1cnc2ccc(-c3cc(Cl)c(O)c(OC)c3)cc2c1Nc1ccc(CN(C)C)cc1 [Example 538] land among the classes by reported IC50?
bin 1

Where would COc1cc(-c2ccc3ncc(C(=O)C4CC4)c(N[C@H]4CC[C@H](CN5CCC(O)C5)CC4)c3c2)cc(Cl)c1O (some centres unmarked) [Example 630] land among the classes by reported IC50?
bin 1

Where would CC(=O)c1cnc2ccc(-c3cnc(C#N)nc3)cc2c1Nc1ccc(CN2CCCC2)cc1 [Example 413] land among the classes by reported IC50?
bin 1

Where would CN(C)C[C@H]1CC[C@H](Nc2c(C(=O)C3CCCC3)cnc3ccc(-c4cc(Cl)c(O)c(Cl)c4)cc23)CC1 [Example 917, hydrochloride] land among the classes by reported IC50?
bin 2

Where would COc1cc(-c2cc3c(N[C@H]4CC[C@H](CN5CCCC5)CC4)c(C(C)=O)cnc3cc2F)cc(Cl)c1O [Example 926, hydrochloride] land among the classes by reported IC50?
bin 2

Where would CN(CCO)C[C@H]1CC[C@H](Nc2c(C(=O)C3CC3)cnc3ccc(-c4cc(F)c(O)c(Cl)c4)cc23)CC1 [Example 632] land among the classes by reported IC50?
bin 0

Where would N[C@@H]1CCCN(c2ccc(Nc3c(C(=O)C4CC4)cnc4ccc(-c5cc(Cl)c(O)c(Cl)c5)cc34)cn2)C1 [Example 650] land among the classes by reported IC50?
bin 0

Where would CC(=O)c1cnc2ccc(-c3cc(F)c(O)c(Cl)c3)cc2c1N[C@H]1CCC[C@@H](CN2CCN(C)CC2)C1 [Example 832, hydrochloride] land among the classes by reported IC50?
bin 1

Where would CCC(=O)c1cnc2ccc(-c3cc(F)c(O)c(Cl)c3)cc2c1N[C@H]1CC[C@H](CN2CCCC2)CC1 [Example 846] land among the classes by reported IC50?
bin 0

Where would CC(=O)c1cnc2ccc(-c3cc(Cl)c(O)c(Cl)c3)cc2c1N[C@H]1CC[C@H](NC(=O)C2CCCN2C)CC1 (some centres unmarked) [Example 875, hydrochloride] land among the classes by reported IC50?
bin 1

Where would N#Cc1cnc2ccc(-c3cc(F)c(O)c(Cl)c3)cc2c1N1CCC(CN2CCCC2)CC1 [Example 434] land among the classes by reported IC50?
bin 1

====

Provide the reported IC50 of each item.
test system: HT-1197 cells; assay: Cell-based assay: anti-proliferative activity, Cell Counting Kit-8, 72 hours (HT-1197, negative control without MELK expression); details: Homo sapiens, HT1197, 72 h, HT1197 cells (negative control, no MELK expression), 72 hours
Counter-ions that a name gives are not always drawn.
Just the number in µM, nothing appended.

With HT-1197 cells as the test system, provide measured IC50 for this compound: CN(C)C[C@]1(O)CC[C@@H](Nc2c(C(=O)C3CC3)cnc3ccc(-c4cc(F)c(O)c(Cl)c4)cc23)CC1 [Example 673]
1.4

With HT-1197 cells as the test system, provide measured IC50 for this compound: CC(=O)c1cnc2ccc(-c3cc(F)c(O)c(Cl)c3)cc2c1N[C@@H]1CCC[C@@H](CN(C)C)C1 [Example 751]
1.7

With HT-1197 cells as the test system, provide measured IC50 for this compound: COc1cc(-c2ccc3ncc(C(=O)C4CC4)c(Nc4ccc(N5CCC[C@H](N)C5)nc4)c3c2)cc(Cl)c1O [Example 660]
2.9

With HT-1197 cells as the test system, provide measured IC50 for this compound: COc1cc(-c2ccc3ncc(C(=O)C4CC4)c(Nc4ccc(CN5CCC(N(C)C)C5)cc4)c3c2)cc(Cl)c1O (centres unmarked) [Example 697]
1.8

With HT-1197 cells as the test system, provide measured IC50 for this compound: CN(C)Cc1ccc(Nc2c(C(=O)C3CCCC3)cnc3ccc(-c4ccc(O)c(Cl)c4)cc23)cc1 [Example 387]
1.9

With HT-1197 cells as the test system, provide measured IC50 for this compound: CNC1CCN(c2ccc(Nc3c(C(C)=O)cnc4ccc(-c5cc(Cl)c(O)c(Cl)c5)cc34)cn2)C1 (centres unmarked) [Example 788, trihydrochloride]
8.6

With HT-1197 cells as the test system, provide measured IC50 for this compound: COc1cc(-c2ccc3ncc(C(=O)C4CC4)c(Nc4ccc(Cn5ccnc5)cc4)c3c2)cc(Cl)c1O [Example 490]
5.8

With HT-1197 cells as the test system, provide measured IC50 for this compound: COc1cc(-c2ccc3ncc(C(C)=O)c(N[C@H]4CC[C@H](CCN(C)C)CC4)c3c2)cc(Cl)c1O [Example 738]
7.8

With HT-1197 cells as the test system, provide measured IC50 for this compound: CC(=O)c1cnc2ccc(-c3cc(Cl)c(O)c(Cl)c3)cc2c1Nc1cccc(CCN(C)C)c1 [Example 729]
10

With HT-1197 cells as the test system, provide measured IC50 for this compound: N[C@H]1CCCN(c2ccc(Nc3c(C(=O)C4CC4)cnc4ccc(-c5cc(F)c(O)c(Cl)c5)cc34)cn2)C1 [Example 648]
0.28

With HT-1197 cells as the test system, provide measured IC50 for this compound: CCC(=O)c1cnc2ccc(-c3cc(F)c(O)c(Cl)c3)cc2c1N[C@H]1CC[C@H](CN(C)C)CC1 [Example 714]
0.55

With HT-1197 cells as the test system, provide measured IC50 for this compound: COc1cc(-c2ccc3ncc(C(=O)C(C)C)c(N[C@H]4CC[C@H](N)CC4)c3c2)cc(Cl)c1O [Example 502]
0.31

With HT-1197 cells as the test system, provide measured IC50 for this compound: COc1cc(-c2ccc3ncc(C#N)c(N4CCC(CN5CCCC5)CC4)c3c2)cc(Cl)c1O [Example 428]
13

With HT-1197 cells as the test system, provide measured IC50 for this compound: N[C@H]1CCCN(c2ccc(Nc3c(C(=O)C4CC4)cnc4ccc(-c5cc(Cl)c(O)c(Cl)c5)cc34)cn2)C1 [Example 646]
0.56

With HT-1197 cells as the test system, provide measured IC50 for this compound: COc1cc(-c2ccc3ncc(C(C)=O)c(Nc4cccc(CCN(C)C)c4)c3c2)cc(Cl)c1O [Example 730]
8

With HT-1197 cells as the test system, provide measured IC50 for this compound: CN(C)Cc1ccc(Nc2c(S(C)(=O)=O)cnc3ccc(-c4cc(F)c(O)c(Cl)c4)cc23)cc1 [Example 399]
1.9

With HT-1197 cells as the test system, provide measured IC50 for this compound: N[C@@H]1CCCN(c2ccc(Nc3c(C(=O)C4CC4)cnc4ccc(-c5cc(F)c(O)c(Cl)c5)cc34)cn2)C1 [Example 651]
0.12

With HT-1197 cells as the test system, provide measured IC50 for this compound: CN(C)C[C@H]1CC[C@H](Nc2c(C(=O)C3CC3)cnc3ccc(-c4cnc(C#N)nc4)cc23)CC1 [Example 426]
3.7

With HT-1197 cells as the test system, provide measured IC50 for this compound: CN1CCCC(n2cc(Nc3c(C(=O)C4CC4)cnc4ccc(-c5cc(Cl)c(O)c(Cl)c5)cc34)cn2)C1 (centres unmarked) [Example 703]
5.5

With HT-1197 cells as the test system, provide measured IC50 for this compound: O=C(c1cnc2ccc(-c3cc(F)c(O)c(Cl)c3)cc2c1Nc1ccc(NC2CCNC2)nc1)C1CC1 (centres unmarked) [Example 667]
10

With HT-1197 cells as the test system, provide measured IC50 for this compound: CCN(C)C[C@H]1CC[C@H](Nc2c(C(C)=O)cnc3ccc(-c4cc(F)c(O)c(Cl)c4)cc23)CC1 [Example 845]
1.4

With HT-1197 cells as the test system, provide measured IC50 for this compound: CN(C)CCc1cccc(Nc2c(C(=O)C3CC3)cnc3ccc(-c4cc(Cl)c(O)c(Cl)c4)cc23)c1 [Example 698]
10

With HT-1197 cells as the test system, provide measured IC50 for this compound: COc1cc(-c2ccc3ncc(C(C)=O)c(Nc4ccc(CN5CCN(C)CC5)cc4)c3c2)cc(Cl)c1O [Example 653]
1.9

With HT-1197 cells as the test system, provide measured IC50 for this compound: NCCOc1ccc(Nc2c(C(=O)C3CC3)cnc3ccc(-c4cc(Cl)c(O)c(Cl)c4)cc23)cn1 [Example 723]
2.1

With HT-1197 cells as the test system, provide measured IC50 for this compound: COc1cc(-c2ccc3ncc(S(C)(=O)=O)c(N[C@H]4CC[C@H](CN(C)C)CC4)c3c2)cc(Cl)c1O [Example 422]
4.4

With HT-1197 cells as the test system, provide measured IC50 for this compound: O=C(c1cnc2ccc(-c3cc(Cl)c(O)c(Cl)c3)cc2c1Nc1cnc(N2CCNCC2)nc1)C1CC1 [Example 497]
0.97

With HT-1197 cells as the test system, provide measured IC50 for this compound: CN(C)Cc1ccc(-c2c(C(=O)C3CC3)cnc3ccc(-c4cc(Cl)c(O)c(Cl)c4)cc23)cc1 [Example 431]
7.5

With HT-1197 cells as the test system, provide measured IC50 for this compound: COc1cc(-c2ccc3ncc(C(C)=O)c(N[C@H]4CC[C@H](CN5CCC(O)C5)CC4)c3c2)cc(Cl)c1O (some centres unmarked) [Example 749]
6.4

With HT-1197 cells as the test system, provide measured IC50 for this compound: CN(C)CCNc1ccc(Nc2c(C(=O)C3CC3)cnc3ccc(-c4cc(Cl)c(O)c(Cl)c4)cc23)cn1 [Example 747]
2.6
